- Tested on: OVCAR-8
- Assay explanation: NCI tumour cell line growth inhibition, 48 h
Active and inactive are the calls of the source. No stated cut-off is given here; in the data, active = GI50 up to about 1.1 µM and inactive = higher.
# output must be one of active, inactive

Observe how each entry below is paired with its result.
[
  {
    "Compound": "CC(C)CC1c2[nH]c3ccccc3c2C[C@H]2C(=O)NC(CCCCNC(=O)OC(C)(C)C)C(=O)N12 (stereo not given in full)",
    "Qualitative label": "inactive"
  },
  {
    "Compound": "COC(=O)c1cccc2cccc(C(=O)Nc3ccc(Cl)cc3)c12",
    "Qualitative label": "inactive"
  },
  {
    "Compound": "CCc1ccc2c(c1)/C(=C1/Nc3ccccc3C1=O)C(=O)N2",
    "Qualitative label": "inactive"
  },
  {
    "Compound": "CNC(=O)N(CCC#N)CCN(CCN(C(=O)NC)c1ccccc1)C(=O)NC",
    "Qualitative label": "inactive"
  },
  {
    "Compound": "COc1cc(C2c3cc4c(cc3[C@@H](Nc3ccc(N5CCOCC5)cc3)C3COC(=O)[C@H]23)OCO4)cc(OC)c1O (stereo not given in full)",
    "Qualitative label": "inactive"
  },
  {
    "Compound": "COC1=CC(=O)C2C(C1=O)C(c1ccc(Cl)cc1)[C@@H]2C (stereo not given in full)",
    "Qualitative label": "inactive"
  },
  {
    "Compound": "O=[N+]([O-])c1cccc(/C=N/NC2=CS(=O)(=O)C=C2)c1",
    "Qualitative label": "inactive"
  },
  {
    "Compound": "CCNC(=S)Nc1c(C#N)c2n(c1C(=O)OCC)CCCCC2",
    "Qualitative label": "inactive"
  },
  {
    "Compound": "Cc1cc2c(=O)cc(-c3ccc(F)cc3)oc2c(C(=O)O)c1C",
    "Qualitative label": "inactive"
  },
  {
    "Compound": "O=C(O)C1=C(C(=O)O)N(c2ccncc2)C(c2ccco2)=CC1c1ccccc1[N+](=O)[O-] (stereo not given)",
    "Qualitative label": "inactive"
  }
]

Now consider a different compound.
Problem: Which outcome did this test record for the compound `O=C(O)CCSC(=O)Nc1cccc2ccccc12` ?
Solution: inactive
